- System: E18 rat cortical neuron-glia co-culture
- protocolSummary: myelination (MBP fiber length per Olig2+ nucleus), % of 1 µM DAPT response (DMSO = 0) (% of DAPT); higher = more myelination, active = 50 or more
- details: 1 µM; treatment time: 8 days (DIV5-DIV13)
Counter-ions that a name gives are not always drawn.
# maps each entry to its myelination
measuredEndpoint: myelination

>>> assayvalue("CC(=O)O[C@]1(C(C)=O)CC[C@H]2[C@@H]3C=C(C)C4=CC(=O)CC[C@]4(C)[C@H]3CC[C@@]21C [Megestrol acetate]")
-33.5
>>> assayvalue("COc1ccc(CC2c3cc(OC)c(OC)cc3CC[N+]2(C)CCC(=O)OCCCCCOC(=O)CC[N+]2(C)CCc3cc(OC)c(OC)cc3C2Cc2ccc(OC)c(OC)c2)cc1OC (centres undefined) [Atracurium]")
-11.6
>>> assayvalue("O=C1CN(/N=C/c2ccc(-c3ccc([N+](=O)[O-])cc3)o2)C(=O)N1 [Dantrolene sodium salt dihydrate]")
-11.8
>>> assayvalue("CCn1cc(C(=O)O)c(=O)c2ccc(C)nc21 [Nalidixic Acid]")
-2.25
